- systemName: recombinant human GREM1 (hGREM1-His; C-terminal 10His tagged, R&D, #5190-GR) (human) (UniProt O60565)
- Sequence (O60565 other isoform, or with tags, fused parts or gaps limits assumed, form in doubt): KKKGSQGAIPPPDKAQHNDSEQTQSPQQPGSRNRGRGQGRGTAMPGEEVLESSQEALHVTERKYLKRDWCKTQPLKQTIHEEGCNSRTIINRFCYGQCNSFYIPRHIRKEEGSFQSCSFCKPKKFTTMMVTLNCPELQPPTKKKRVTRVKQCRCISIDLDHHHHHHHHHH
- experimentalProtocol: BLI Octet, captured mAb, 100 nM GREM1 without vs with 5 uM heparin
assayMetric: Reduction in Signal from Heparin at 30 sec (nm)

binder	endpointValue
H4H6260P (antibody, human IgG4, V domains shown) VH: QVQLVESGGGVVQPGRSLRLSCAASGFTFSTYGMHWVRQAPGKGLEWVAIIWYDGSNYYYADSVKGRFTISRDNSKNTLYLQMNSLRAEDTAVYYCAREDRNDVFDIWGQGTMVTVSS VL: EIVLTQSPATLSLSPGERATLSCRASQSVSSFLAWYQQKPGQAPRLLIYDSSNRATGIPARFSGSGSGTDFTLTISSLEPEDFAVYYCQQLSNWPPITFGQGTRLEIK	0.17
